biological target: T1, human programmed cell death protein 1 (hPD-1) C93S (aa 24-167) (Homo sapiens, UniProt Q15116, C93S); assay: SPR; Carterra LSA; Fab from the ammonium sulfate precipitate of the culture supernatant immobilised on a NiHC200M chip; hPD-1 (1-1024 nM) or mPD-1-Fc (4-1024 nM) as analyte, fourfold dilution series, no regeneration; HBS-EP pH 7.4, 25 °C; medians over the spots of a construct, KD = koff/kon; settings: one partner purified
T1 construct: made as a fusion with a TEV site and human Fc; the Fc was cut off with TEV protease; source: Expi293F, purified (Protein A, TEV cleavage of Fc, SEC; monomer fractions); not shown: Fc (human), C-terminal, cleaved
T1 sequence (Q15116 24-167 C93S): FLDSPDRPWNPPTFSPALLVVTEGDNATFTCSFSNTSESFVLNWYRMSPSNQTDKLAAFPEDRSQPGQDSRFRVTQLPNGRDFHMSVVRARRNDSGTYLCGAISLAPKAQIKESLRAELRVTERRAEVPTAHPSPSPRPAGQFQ
measureName: Kd (nM)

1. toripalimab Fab L.H31Y (Fab, V domains shown, as the heavy chain of Sm3; light chain of Sm3 with this change; numbers count from the chain's first residue; source: Brevibacillus, culture supernatant (ammonium sulfate precipitate); not shown: 6xHis, C-terminal, kept; 6xHN, C-terminal, kept) VH: QGQLVQSGAEVKKPGASVKVSCKASGYTFTDYEMHWVRQAPIHGLEWIGVIESETGGTAYNQKFKGRVTITADKSTSTAYMELSSLRSEDTAVYYCAREGITTVATTYYWYFDVWGQGTTVTVSS VL: DVVMTQSPLSLPVTLGQPASISCRSSQSIVYSNGNTYLEWYLQKPGQSPQLLIYKVSNRFSGVPDRFSGSGSGTDFTLKISRVEAEDVGVYYCFQGSHVPLTFGQGTKLEIK ... 17.2
2. toripalimab Fab L.V99F (Fab, V domains shown, as the heavy chain of Sm3; light chain of Sm3 with this change; numbers count from the chain's first residue; source: Brevibacillus, culture supernatant (ammonium sulfate precipitate); not shown: 6xHis, C-terminal, kept; 6xHN, C-terminal, kept) VH: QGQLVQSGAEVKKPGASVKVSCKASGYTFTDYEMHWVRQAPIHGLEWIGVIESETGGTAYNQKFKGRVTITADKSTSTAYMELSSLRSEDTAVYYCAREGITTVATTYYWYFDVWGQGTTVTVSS VL: DVVMTQSPLSLPVTLGQPASISCRSSQSIVHSNGNTYLEWYLQKPGQSPQLLIYKVSNRFSGVPDRFSGSGSGTDFTLKISRVEAEDVGVYYCFQGSHFPLTFGQGTKLEIK ... 2.51

The origin of these recorded values is paper PMC10663500.
